Biological target: T1, DcR3 (UniProt O95407 30-300, limits assumed)
T1 construct: the construct is not described; also called decoy receptor DcR3; TNFRSF6B
T1 sequence (looked up): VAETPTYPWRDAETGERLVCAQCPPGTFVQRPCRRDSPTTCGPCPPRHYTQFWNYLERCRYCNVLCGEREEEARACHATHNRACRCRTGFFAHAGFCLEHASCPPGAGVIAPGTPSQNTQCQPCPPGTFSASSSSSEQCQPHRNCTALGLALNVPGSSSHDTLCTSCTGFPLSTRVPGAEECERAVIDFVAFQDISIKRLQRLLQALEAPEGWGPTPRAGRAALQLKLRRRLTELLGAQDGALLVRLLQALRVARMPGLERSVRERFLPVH
Experiment: ELISA, DcR3
Listed next: entries and their corresponding EC50.

{"binder": "TL1W134 (His-TEV-TL1A T239K) (ligand, also called TL1W134 (T239K)) HHHHHHENLYFQGLKGQEFAPSHQQVYAPLRADGDKPRAHLTVVRQTPTQHFKNQFPALHWEHELGLAFTKNRMNYTNKFLLIPESGDYFIYSQVTFRGMTSECSEIRQAGRPNKPDSITVVITKVTDSYPEPTQLLMGTKSVCEVGSNWFQPIYLGAMFSLQEGDKLMVNVSDISLVDYKKEDKTFFGAFLL", "EC50 [nM]": 21.5}
{"binder": "TL1W132 (His-TEV-TL1A T239A) (ligand, also called TL1W132 (T239A)) HHHHHHENLYFQGLKGQEFAPSHQQVYAPLRADGDKPRAHLTVVRQTPTQHFKNQFPALHWEHELGLAFTKNRMNYTNKFLLIPESGDYFIYSQVTFRGMTSECSEIRQAGRPNKPDSITVVITKVTDSYPEPTQLLMGTKSVCEVGSNWFQPIYLGAMFSLQEGDKLMVNVSDISLVDYAKEDKTFFGAFLL", "EC50 [nM]": 27.2}
{"binder": "TL1W39 (His-TEV-TL1A L123G) (ligand, also called TL1W39 (L123G)) HHHHHHENLYFQGLKGQEFAPSHQQVYAPLRADGDKPRAHLTVVRQTPTQHFKNQFPALHWEHEGGLAFTKNRMNYTNKFLLIPESGDYFIYSQVTFRGMTSECSEIRQAGRPNKPDSITVVITKVTDSYPEPTQLLMGTKSVCEVGSNWFQPIYLGAMFSLQEGDKLMVNVSDISLVDYTKEDKTFFGAFLL", "EC50 [nM]": 38.2}
